FYI, the data here is from paper PMC11513893.

Test system: Ba/F3 ROS1 (SLC34A2) F2075C-G1837E
Assay details: Antiproliferation assay
Type: cell-based
Assay setup: Mus musculus, BaF3; Ba/F3 cell line
Endpoint: IC50 (nM)
Express it in nM; write the number only.

Sample answers from the record:
Find the recorded IC50 belonging to COc1cc(N2CCC(N3CCN(CC4CCN(c5ccc6c(c5)CN(C5CCC(=O)NC5=O)C6=O)CC4)CC3)CC2)ccc1Nc1ncc(Cl)c(Nc2ccccc2P(C)(C)=O)n1 (stereo not shown) and report it.
0.4

Give the measured IC50 of C[C@H]1CNC(=O)c2cnn3ccc(nc23)N[C@H](C)c2cc(F)ccc2O1 .
0.4

Look up IC50: C[C@H]1Oc2cc(cnc2N)-c2c(nn(C)c2C#N)CN(C)C(=O)c2ccc(F)cc21
0.1

We next turn to a different compound, shown below.
Entry under review: COc1cc(N2CCC(N3CCN(C)CC3)CC2)ccc1Nc1ncc(Cl)c(Nc2ccccc2P(C)(C)=O)n1 . Reported IC50?
8.1

###

Target sequence: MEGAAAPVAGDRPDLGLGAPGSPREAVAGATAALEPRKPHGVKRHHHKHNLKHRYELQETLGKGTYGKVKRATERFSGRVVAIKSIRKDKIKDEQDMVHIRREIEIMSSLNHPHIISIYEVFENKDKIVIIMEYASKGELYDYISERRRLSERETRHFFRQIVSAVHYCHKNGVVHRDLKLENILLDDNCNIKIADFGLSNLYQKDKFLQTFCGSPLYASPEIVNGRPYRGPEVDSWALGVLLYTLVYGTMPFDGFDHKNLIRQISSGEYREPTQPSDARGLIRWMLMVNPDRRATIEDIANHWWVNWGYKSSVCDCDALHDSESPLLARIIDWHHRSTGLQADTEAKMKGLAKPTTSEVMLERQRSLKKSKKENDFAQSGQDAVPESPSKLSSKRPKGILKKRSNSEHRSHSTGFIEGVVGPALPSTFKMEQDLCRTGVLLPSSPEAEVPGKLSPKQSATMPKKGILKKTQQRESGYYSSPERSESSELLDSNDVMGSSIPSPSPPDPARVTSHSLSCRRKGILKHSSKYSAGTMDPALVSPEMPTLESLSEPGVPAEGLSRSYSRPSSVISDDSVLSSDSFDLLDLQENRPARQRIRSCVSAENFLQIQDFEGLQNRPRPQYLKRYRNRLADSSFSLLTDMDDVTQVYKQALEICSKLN
Endpoint: pIC50
Scale note: pIC50 = -log10(concentration in M).

Entry under review: COc1cc(N2CCC(N3CCN(CC4CCN(c5ccc6c(c5)CN(C5CCC(=O)NC5=O)C6=O)CC4)CC3)CC2)ccc1Nc1ncc(Cl)c(Nc2ccccc2P(C)(C)=O)n1 (stereo not shown) [9o] . Reported pIC50?
7.33

###

Tested on: ROS1
Assay details: ROS1 degradation in Ba/F3 cells (WES immunoblotting)
Format: cell-based
Assay setup: concentration needed to reduce ROS1 protein by 50%, Ba/F3 cells
Please respond with yes when measured DC50 is strictly beneath 80 nM, and with no in all other cases.

Please state whether DC50 is below 80 nM for COc1cc(N2CCN(c3ccc4c(c3)C(=O)N(C3CCC(=O)NC3=O)C4=O)CC2)ccc1Nc1ncc(Cl)c(Nc2ccccc2P(C)(C)=O)n1 (stereo not drawn)
no

Problem: For the molecule C[C@@H](Oc1cc(-c2cnn(C3CCN(CCC4CCN(c5ccc6c(c5)C(=O)N(C5CCC(=O)NC5=O)C6=O)CC4)CC3)c2)cnc1N)c1c(Cl)ccc(F)c1Cl (stereo partly drawn) , is DC50 under 80 nM?
no

Take the molecule COc1cc(N2CCC(N3CCN(C(=O)CN4CCN(c5ccc(NC6CCC(=O)NC6=O)cc5)CC4)CC3)CC2)ccc1Nc1ncc(Cl)c(Nc2ccccc2P(C)(C)=O)n1 (stereo not drawn) and say whether its DC50 is less than 80 nM.
no

# strict comparison: is reported DC50 < 80 nM? input = Cc1cc(Nc2ncc(Cl)c(Nc3ccccc3S(=O)(=O)C(C)C)n2)c(OC(C)C)cc1C1CCN(C2CCN(CCNc3cccc4c3C(=O)N(C3CCC(=O)NC3=O)C4=O)CC2)CC1 (stereo not drawn)
no

Consider the molecule Cc1cc(Nc2ncc(Cl)c(Nc3ccccc3S(=O)(=O)C(C)C)n2)c(OC(C)C)cc1C1CCN(C2CN(CC3CN(c4ccc5c(c4)C(=O)N(C4CCC(=O)NC4=O)C5=O)C3)C2)CC1 (stereo not drawn) . Is its DC50 strictly less than 80 nM?
yes

---
Consider Cc1cc(Nc2ncc(Cl)c(Nc3ccccc3S(=O)(=O)C(C)C)n2)c(OC(C)C)cc1C1CCN(C2CCN(CCCNc3cccc4c3C(=O)N(C3CCC(=O)NC3=O)C4=O)CC2)CC1 (stereo not drawn) . Does its DC50 lie strictly below 80 nM?
no

###

Tested on: Ba/F3 ROS1 (CD74) G2032R-L2086F
Assay details: Antiproliferation assay
Type: cell-based
Assay setup: Mus musculus, BaF3; Ba/F3 cell line
Endpoint: IC50 (nM)
Return type: number; implicit unit nM.

Look up IC50: C[C@H]1CNC(=O)c2cnn3ccc(nc23)N[C@H](C)c2cc(F)ccc2O1 [repotrectinib]
181

Tell me the measured IC50 of COc1cc(N2CCC(N3CCN(C)CC3)CC2)ccc1Nc1ncc(Cl)c(Nc2ccccc2P(C)(C)=O)n1 [brigatinib] , please.
694

Please examine the following record next.
Dear colleague, I am looking for the recorded IC50 of the following compound: COc1cc(N2CCC(N3CCN(CC4CCN(c5ccc6c(c5)CN(C5CCC(=O)NC5=O)C6=O)CC4)CC3)CC2)ccc1Nc1ncc(Cl)c(Nc2ccccc2P(C)(C)=O)n1 (stereo not shown) [9o]
66.2

###

Assay details: Pharmacokinetics study in Sprague–Dawley rats
Assay type: in vivo
Assay setup: Sprague-Dawley [Crl: CD (SD)], plasma; rat, 2 mg/kg iv; read-out: AUC (iv)
Endpoint: AUC (ng·h/mL)
API: value field is a number in ng·h/mL; no unit string.

What AUC value was documented for this compound, COc1cc(N2CCN(CC3CCN(c4ccc5c(c4)C(=O)N(C4CCC(=O)NC4=O)C5=O)CC3)CC2)ccc1Nc1ncc(Cl)c(Nc2ccccc2P(C)(C)=O)n1 (stereo not shown) ?
29400

###

Subject of test: ROS1 (G2032R) (Homo sapiens, UniProt P08922, G2032R)
Sequence (P08922 28-2347 G2032R): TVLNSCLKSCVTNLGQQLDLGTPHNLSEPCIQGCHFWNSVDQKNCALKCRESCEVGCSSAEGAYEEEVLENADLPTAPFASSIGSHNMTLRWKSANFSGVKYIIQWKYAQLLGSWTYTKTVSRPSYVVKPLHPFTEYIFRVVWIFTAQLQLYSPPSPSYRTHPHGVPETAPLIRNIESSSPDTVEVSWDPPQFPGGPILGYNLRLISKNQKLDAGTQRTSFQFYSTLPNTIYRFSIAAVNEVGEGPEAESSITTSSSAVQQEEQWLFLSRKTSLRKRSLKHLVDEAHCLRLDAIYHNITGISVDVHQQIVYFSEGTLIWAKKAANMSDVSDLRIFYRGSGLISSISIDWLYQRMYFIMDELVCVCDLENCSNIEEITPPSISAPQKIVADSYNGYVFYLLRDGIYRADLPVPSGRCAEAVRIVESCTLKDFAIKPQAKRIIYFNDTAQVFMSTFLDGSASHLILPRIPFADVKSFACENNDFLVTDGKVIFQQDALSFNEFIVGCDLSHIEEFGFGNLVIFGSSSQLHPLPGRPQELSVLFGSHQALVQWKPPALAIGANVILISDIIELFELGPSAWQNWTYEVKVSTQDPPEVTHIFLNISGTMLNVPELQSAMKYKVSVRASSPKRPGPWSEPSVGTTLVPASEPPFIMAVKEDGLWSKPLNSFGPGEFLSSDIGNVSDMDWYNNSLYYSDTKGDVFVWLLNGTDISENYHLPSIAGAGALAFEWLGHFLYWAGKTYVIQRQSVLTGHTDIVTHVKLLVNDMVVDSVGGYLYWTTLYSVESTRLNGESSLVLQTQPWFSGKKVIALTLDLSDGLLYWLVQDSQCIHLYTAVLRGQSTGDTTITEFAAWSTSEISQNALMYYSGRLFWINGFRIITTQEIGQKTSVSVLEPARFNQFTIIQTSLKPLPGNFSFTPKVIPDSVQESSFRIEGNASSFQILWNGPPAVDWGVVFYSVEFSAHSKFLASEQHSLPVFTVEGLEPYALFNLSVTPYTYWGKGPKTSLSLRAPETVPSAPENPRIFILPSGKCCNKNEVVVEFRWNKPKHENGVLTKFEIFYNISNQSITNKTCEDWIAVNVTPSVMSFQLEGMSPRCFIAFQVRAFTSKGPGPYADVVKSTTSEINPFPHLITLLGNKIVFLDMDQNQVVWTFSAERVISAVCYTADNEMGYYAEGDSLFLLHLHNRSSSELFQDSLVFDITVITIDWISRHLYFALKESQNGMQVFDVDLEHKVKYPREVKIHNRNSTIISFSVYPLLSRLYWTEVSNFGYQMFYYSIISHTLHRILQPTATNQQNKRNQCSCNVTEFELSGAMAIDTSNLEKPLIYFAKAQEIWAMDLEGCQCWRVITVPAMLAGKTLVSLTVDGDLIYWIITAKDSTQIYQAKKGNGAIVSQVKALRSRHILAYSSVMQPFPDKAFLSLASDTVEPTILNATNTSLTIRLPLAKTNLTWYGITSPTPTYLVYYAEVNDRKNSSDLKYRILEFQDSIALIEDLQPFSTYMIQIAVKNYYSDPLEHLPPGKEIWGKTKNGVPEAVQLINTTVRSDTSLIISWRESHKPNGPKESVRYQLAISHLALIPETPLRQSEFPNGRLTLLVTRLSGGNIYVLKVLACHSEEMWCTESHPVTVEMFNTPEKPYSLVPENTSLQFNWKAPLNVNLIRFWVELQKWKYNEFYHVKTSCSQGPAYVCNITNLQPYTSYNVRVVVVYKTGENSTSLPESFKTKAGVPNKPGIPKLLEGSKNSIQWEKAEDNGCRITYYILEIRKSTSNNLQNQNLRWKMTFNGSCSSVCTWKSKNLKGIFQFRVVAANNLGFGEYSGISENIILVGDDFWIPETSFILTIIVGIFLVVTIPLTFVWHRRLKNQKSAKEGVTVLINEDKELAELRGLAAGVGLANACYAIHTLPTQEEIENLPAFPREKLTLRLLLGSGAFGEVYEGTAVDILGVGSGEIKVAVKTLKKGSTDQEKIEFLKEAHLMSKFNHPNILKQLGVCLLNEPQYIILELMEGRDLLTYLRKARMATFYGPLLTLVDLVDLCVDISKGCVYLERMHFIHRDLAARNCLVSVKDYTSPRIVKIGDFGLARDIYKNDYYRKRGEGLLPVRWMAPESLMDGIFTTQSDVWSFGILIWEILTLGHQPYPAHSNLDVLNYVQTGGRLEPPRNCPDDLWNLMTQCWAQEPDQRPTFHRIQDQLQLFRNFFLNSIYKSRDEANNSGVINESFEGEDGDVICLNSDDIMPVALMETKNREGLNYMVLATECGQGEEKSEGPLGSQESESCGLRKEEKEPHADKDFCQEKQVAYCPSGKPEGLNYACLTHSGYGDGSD
Assay details: Kinase assay
Assay setup: average of duplicate measurements
Endpoint: IC50 (nM)
Form entry: value (nM) — number only.

Returns the measured IC50 for the input compound. Input: COc1cc(N2CCC(N3CCN(CC4CCN(c5ccc6c(c5)CN(C5CCC(=O)NC5=O)C6=O)CC4)CC3)CC2)ccc1Nc1ncc(Cl)c(Nc2ccccc2P(C)(C)=O)n1 (stereo not shown)
161

###

Assay details: Pharmacokinetics study in Sprague–Dawley rats
Type: in vivo
Assay setup: Sprague-Dawley [Crl: CD (SD)], plasma; rat, 10 mg/kg po vs 2 mg/kg iv
Endpoint: bioavailability (%)
Give the quantity in %, number only.

Which bioavailability reading was recorded for the compound COc1cc(N2CCN(CC3CCN(c4ccc5c(c4)C(=O)N(C4CCC(=O)NC4=O)C5=O)CC3)CC2)ccc1Nc1ncc(Cl)c(Nc2ccccc2P(C)(C)=O)n1 (stereo not shown) [9c] ?
21.6

###

Assay details: Metabolic stability in human microsomes
Assay type: in vitro ADME
Assay setup: human, pooled human microsomes, pH 7.4; 250 nM compound, NADPH, 37 °C; read-out: metabolic stability in human microsomes T1/2
Endpoint: half-life at 1 h, 0.25 µM (min)
// note: answer is a bare numeric in min

Name the reported half-life at 1 h, 0.25 µM value associated with the molecule COc1cc(N2CCN(CC3CCN(c4ccc5c(c4)C(=O)N(C4CCC(=O)NC4=O)C5=O)CC3)CC2)ccc1Nc1ncc(Cl)c(Nc2ccccc2P(C)(C)=O)n1 (centres unmarked)
39.8

Reported half-life at 1 h, 0.25 µM for COc1cc(N2CCC(N3CCN(CC4CCN(c5ccc6c(c5)C(=O)N(C5CCC(=O)NC5=O)C6=O)CC4)CC3)CC2)ccc1Nc1ncc(Cl)c(Nc2ccccc2P(C)(C)=O)n1 (centres unmarked) : what is it?
55

Tell me the measured half-life at 1 h, 0.25 µM of COc1cc(N2CCC(N3CCN(CC4CN(c5ccc6c(c5)C(=O)N(C5CCC(=O)NC5=O)C6=O)C4)CC3)CC2)ccc1Nc1ncc(Cl)c(Nc2ccccc2P(C)(C)=O)n1 (centres unmarked) , please.
60.8

Request the reported half-life at 1 h, 0.25 µM associated with COc1cc(N2CCC(N3CCN(CC4CCN(c5ccc6c(c5)CN(C5CCC(=O)NC5=O)C6=O)CC4)CC3)CC2)ccc1Nc1ncc(Cl)c(Nc2ccccc2P(C)(C)=O)n1 (centres unmarked)
48.8

Let us move to another entry and its half-life at 1 h, 0.25 µM.
I have this molecule here, COc1cc(N2CCN(CC3CN(c4ccc5c(c4)CN(C4CCC(=O)NC4=O)C5=O)C3)CC2)ccc1Nc1ncc(Cl)c(Nc2ccccc2P(C)(C)=O)n1 (centres unmarked) , and I need its recorded half-life at 1 h, 0.25 µM.
36.9
